Target system: kinase enzymes (Homo sapiens, UniProt P42336)
Sequence (P42336 whole entry): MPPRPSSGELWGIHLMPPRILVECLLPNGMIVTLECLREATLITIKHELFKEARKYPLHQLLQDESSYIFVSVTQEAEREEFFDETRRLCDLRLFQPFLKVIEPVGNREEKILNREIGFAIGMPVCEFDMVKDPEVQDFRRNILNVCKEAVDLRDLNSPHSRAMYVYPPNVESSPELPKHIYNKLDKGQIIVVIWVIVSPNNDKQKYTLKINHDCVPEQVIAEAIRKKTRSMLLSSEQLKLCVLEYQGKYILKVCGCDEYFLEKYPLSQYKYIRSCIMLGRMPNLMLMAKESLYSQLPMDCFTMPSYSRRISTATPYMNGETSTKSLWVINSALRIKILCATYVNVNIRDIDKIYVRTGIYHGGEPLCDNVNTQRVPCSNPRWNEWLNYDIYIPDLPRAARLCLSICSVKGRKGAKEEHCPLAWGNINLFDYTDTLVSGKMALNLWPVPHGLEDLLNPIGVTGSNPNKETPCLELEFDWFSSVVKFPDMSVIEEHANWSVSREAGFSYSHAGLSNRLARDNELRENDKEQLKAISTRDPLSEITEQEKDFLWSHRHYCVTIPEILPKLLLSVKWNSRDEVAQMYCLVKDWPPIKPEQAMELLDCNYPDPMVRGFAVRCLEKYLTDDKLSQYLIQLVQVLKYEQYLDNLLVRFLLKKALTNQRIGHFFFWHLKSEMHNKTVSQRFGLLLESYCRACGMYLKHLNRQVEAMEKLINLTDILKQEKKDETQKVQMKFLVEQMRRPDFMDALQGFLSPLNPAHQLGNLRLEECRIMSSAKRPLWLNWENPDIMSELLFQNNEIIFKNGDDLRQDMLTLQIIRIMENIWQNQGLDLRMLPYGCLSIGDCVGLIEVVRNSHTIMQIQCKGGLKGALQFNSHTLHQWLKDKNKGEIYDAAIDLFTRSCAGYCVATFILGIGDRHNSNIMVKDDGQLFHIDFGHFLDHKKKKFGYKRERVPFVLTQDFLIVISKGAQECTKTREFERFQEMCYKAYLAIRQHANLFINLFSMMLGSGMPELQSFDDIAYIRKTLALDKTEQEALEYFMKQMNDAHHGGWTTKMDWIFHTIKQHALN
# maps each entry to its pKd
Notebook: values listed as pKd are -log10 of the concentration (mol/L).

Reference set (3 entries):
>>> df
                                   compound  value
0  CC(Oc1ccc(F)c(F)c1)c1cc(C(=O)N2CC[C@H](N(C)C)C2)cc2ncc(N3CCOCC3)nc12 (single isomer, unassigned) [Compound 363a]   4.96
1  CC(Nc1cccc(F)c1)c1cc(C(=O)NCC(=O)O)cc2ncc(N3CCOCC3)nc12 (single isomer, unassigned) [Compound 393a]   6.36
2  CC(Nc1ccc(F)c(F)c1)c1cc(C(=O)NCCN(C)C)cc2ncc(N3CCOCC3)nc12 (single isomer, unassigned) [Compound 281a]   5.82

Any idea what pKd was measured for CC(Nc1ccc(F)c(F)c1)c1cc(C(=O)NCCO)cc2ncc(N3CCOCC3)nc12 (single isomer, unassigned) [Compound 279b] ?
4.58

Ok, now CC(Oc1cccc(F)c1)c1cc(C(=O)N(C)C)cc2ncc(N3CCOCC3)nc12 (single isomer, unassigned) [Compound 339b]
6.12

Ok, now C[C@@H]1CN(c2cnc3cc(C(=O)N(C)C)cc(C4CCCN4c4cccc(F)c4)c3n2)CCO1 (single isomer, unassigned)
4.99
